Test system: Hepatitis B virus
Test: Antiviral activity against HBV infected in human HepG2.2.15 cells assessed as inhibition of intracellular viral DNA accumulation at 2 uM for 4 days by qPCR or qRT-PCR relative to control
Format: functional, organism-based
Details: HepG2 2.2.15
Active and inactive are the calls of the source. The rule behind the calls is not given here.
measured-endpoint: inhibition

O=S(=O)(c1cc2c(Nc3ccc(F)c(C(F)F)c3)nn(C3CC3)c2cn1)N1CCC(O)CC1 : Active
Cc1cc(Nc2nn(C3CC3)c3cnc(S(=O)(=O)N4CCC(O)CC4)cc23)ccc1F : Active
CCOC(=O)C1=C(CN2CCOCC2)NC(c2nccs2)=NC1c1ccc(F)cc1Br (centres undefined) : Active
COc1ccccc1/C(Br)=C(\NC(=O)c1ccc([N+](=O)[O-])cc1)C(=O)N1CCCCC1 : Active
